biological target: CYP 2C19 (Homo sapiens, UniProt P33261); assay: CYP450 assay (luminescence); assay type: in vitro ADME; conditions: control compound at 100 μM, read-out: inhibitory activity against human CYP 2C19
Sequence (P33261 whole entry): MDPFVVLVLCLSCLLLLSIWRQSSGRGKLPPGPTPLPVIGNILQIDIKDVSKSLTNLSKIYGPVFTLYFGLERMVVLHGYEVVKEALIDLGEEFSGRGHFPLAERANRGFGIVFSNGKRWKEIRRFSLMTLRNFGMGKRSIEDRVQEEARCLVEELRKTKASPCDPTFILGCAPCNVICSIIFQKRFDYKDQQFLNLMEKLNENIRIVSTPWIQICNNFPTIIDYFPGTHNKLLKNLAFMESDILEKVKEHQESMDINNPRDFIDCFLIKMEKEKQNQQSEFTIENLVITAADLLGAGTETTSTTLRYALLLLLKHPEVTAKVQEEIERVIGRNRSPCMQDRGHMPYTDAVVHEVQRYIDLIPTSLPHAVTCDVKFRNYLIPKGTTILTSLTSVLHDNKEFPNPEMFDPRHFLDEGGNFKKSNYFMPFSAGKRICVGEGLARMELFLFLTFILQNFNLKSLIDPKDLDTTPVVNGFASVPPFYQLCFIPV
measurement_name: inhibition at 20 min, 100 µM (%)
Write the number in % without appending the unit.

Problem: Give the measured inhibition at 20 min, 100 µM of CN(C)CCC=C1c2ccccc2CCc2ccccc21 [amitriptyline, reference compound] .
Result: 88

----------
assay: Cytotoxicity test (cell counting kit-8), summary over respective cells; format: cell-based; settings: African green monkey, human, mouse, Chinese hamster, NIH3T3 and CHO-K1 cells; criterion 10 μM; VERO, HFL-1, L929, NIH3T3, CHO-K1
pIC50: −log10 of the molar value.
measurement_name: pIC50

Problem: Give the measured pIC50 of Clc1cnc(Nc2ccc(OCCN3CCCC3)cc2)nc1NCc1ccco1 [Compound 5] .
Result: ≤ 5.00

----------
system: Ba/F3 parental; experiment: Ba/F3 parental growth inhibition; format: cell-based; conditions: Mus musculus, BaF3; Ba/F3 parental cells
Listed next: entries and their corresponding GI50.
Write the number in µM without appending the unit.

Fc1cnc(Nc2ccc(OCCN3CCCC3)cc2)nc1NCc1ccco1 [Compound 20] = 6.67
Cc1cnc(Nc2ccc(OCCN3CCCC3)cc2)nc1NCc1ccco1 [Compound 1] = 1.79
FC(F)(F)c1cnc(Nc2ccc(OCCN3CCCC3)cc2)nc1NCc1ccco1 [Compound 21] = 8.06

Problem: Identify the measured GI50 of Clc1cnc(Nc2ccc(OCCN3CCCC3)cc2)nc1NCc1ccco1 [Compound 5] for Ba/F3 parental.
Result: 1.82

----------
Target: CYP 2C19 (Homo sapiens)
Experiment: CYP450 assay (luminescence)
Type: in vitro ADME
Details: CYP 2C19 enzyme with substrate, compound at 10 μM, read-out: inhibitory activity against human CYP 2C19
Method: The resulting substance was reacted with NADPH for 20 minutes at 37° C. and a detection reagent was added to terminate the reaction. After stabilization at room temperature for 20 minutes, a luminescence signal was measured.
measurement_name: inhibition at 20 min, 10 µM (%)
Write the number in % without appending the unit.

Problem: Give the measured inhibition at 20 min, 10 µM of Clc1cnc(Nc2ccc(OCCN3CCCC3)cc2)nc1NCc1ccco1 .
Result: 15.9

The reported measurements were obtained from patent US10683282B2.
